target_system: T1, human ANGPTL8 (human, UniProt Q6UXH0 22-198)
T1 construct: Biotinylated in the ELISA assays; also called hANGPTL8; free ANGPTL8
T1 sequence: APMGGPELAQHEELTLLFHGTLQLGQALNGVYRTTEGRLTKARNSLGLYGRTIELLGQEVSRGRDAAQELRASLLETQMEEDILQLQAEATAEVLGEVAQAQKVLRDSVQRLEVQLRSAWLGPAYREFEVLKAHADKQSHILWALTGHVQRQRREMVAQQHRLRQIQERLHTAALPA
assay_info: ELISA; Ab captured by anti-human Fc; biotinylated antigen at 33.3 nM
recorded_metric: OD at 560 nm (OD 560 nm)
Answers are plain numbers, in OD 560 nm.

Look at this binder and give its reported OD at 560 nm. Ab with LC variant having a D33A mutation (SEQ ID NO:22) and a HC of SEQ ID NO:6 (antibody, human IgG4 S228P, kappa, F234A L235A, V domains shown, also called D33A Variant Ab; D33A Ab) VH: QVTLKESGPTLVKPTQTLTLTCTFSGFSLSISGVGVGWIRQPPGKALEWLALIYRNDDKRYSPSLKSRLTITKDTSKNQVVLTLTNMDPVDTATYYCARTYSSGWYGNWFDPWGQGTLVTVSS VL: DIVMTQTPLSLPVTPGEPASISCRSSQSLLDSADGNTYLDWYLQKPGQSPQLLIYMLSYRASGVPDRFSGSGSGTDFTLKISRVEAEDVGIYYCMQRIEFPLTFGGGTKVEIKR
0.049

Values compiled from patent US20200199213A1.
